TEST PROTOCOL: NFAT Signaling Pathway (AID 444);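 also: carbachol stimulus at about its EC50 of 1 µM final; % is scaled to controls: 0 for no effect and ±100 for the full control effect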
RUN CONDITIONS: Jurkat NFAT-bla M1, carbachol, beta-lactamase ratio, 5 h; at 7.69 µM (top of the series) unless noted
Inconclusive results are not listed. The source made the active and inactive calls. Calls follow the shape of the dose curve; as a rule, active = well fitted curve in either direction with a large enough effect (not every such curve was filed as active); inconclusive = small, poorly fitted or top-dose-only effect, or another doubt; inactive = flat fitted curve, though single readings scatter.
Classes used: active, inactive

COMPOUND STRING	LABEL CLASS
CC1=NN(c2ccc(S(=O)(=O)O)cc2C)C(=[OH+])[C@H]1N=Nc1cc(S(=O)(=O)O)ccc1C(=O)O.O.[Cr]	inactive
O=C(O)/C=C\c1ccc[c]([Sb](=[O])([OH])[OH])c1	inactive
O=C(O)[C@H](Cc1cnc[nH]1)N1C(=O)c2ccccc2C1=O	inactive
NCCCN1CCN(c2ccccc2)CC1	inactive
CN(CCC(=O)O)C1=Nc2ccc(Cl)cc2C(c2ccccc2)=[N+]([O-])C1	inactive
CN(C)CCCc1cccnc1	inactive
O=C(O)C(=O)Cc1ccc2c(c1)OCO2	inactive
CC(C)(C)C(=O)CP(=O)(O)O	inactive
CCc1ccc(CCN2CCCCC2)nc1	inactive
CC(C)[C@@]1(NC(=O)[C@@H]2C=C3c4cccc5[nH]cc(c45)C[C@@H]3N(C)C2)O[C@]2(O)[C@H]3CCCN3C(=O)[C@H](Cc3ccccc3)N2C1=O	inactive
O=P(O)(O)CCP(=O)(O)O	inactive
CC(C)[C@]1(O)[C@@H](OC(=O)c2ccc[nH]2)[C@]2(O)[C@@]3(C)C[C@@]4(O)O[C@@]5([C@H](O)[C@@H](C)CC[C@]35O)[C@]2(O)[C@]41C	inactive
Oc1ccc([C@H](O)[C@@H]2CCCCN2)cc1O	inactive
N#CS.N=C=S.N=C=S.[Cu].[NH2-].[NH2-].[NH2-].[NH2-].c1ccc2ncccc2c1	inactive
NCCP(=O)(O)O	inactive
CCN(CC)c1ncnc2c1ncn2[C@@H]1O[C@@H](COP(=O)(O)OP(=O)(O)C(Br)(Br)P(=O)(O)O)[C@H](O)[C@@H]1O	inactive
O=C(O)[C@H]1[C@H](C(=O)O)[C@H]2CC[C@@H]1O2	inactive
O=S(=O)(NCCO)c1cc[c]([Sb](=[O])([OH])[OH])cc1	inactive
C[C@@]12CC[C@H]3[C@@H](CCC4=C(O)C(=O)CC[C@]43C)[C@H]1CCC2=O	inactive
COc1ccc(C[C@@H]2C(=O)N[C@H](C)C(=O)N(C)[C@@H]3C(=O)N(C)[C@@H](Cc4ccc(O)c(c4)Oc4ccc(cc4)[C@H]3O)C(=O)N[C@@H](C)C(=O)N[C@H](C)C(=O)N2C)cc1	active
O=[As](O)(O)c1ccc(N=Nc2ccc([As](=O)(O)O)cc2)cc1	inactive

* * *

Documented activity, negative = inhibition across a set of compounds
TEST PROTOCOL: Stat Signaling Pathway (AID 446);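 also: ME-180 cervical cancer cells given 40 pM IL-6 alongside compound; SIE-controlled beta-lactamase reporter measured as 460/530 nm FRET emission ratio; % is scaled to controls: 0 for no effect and ±100 for the full control effect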
RUN CONDITIONS: ME-180 (cervical carcinoma) SIE beta-lactamase reporter, IL-6 stimulated, 5 h; at 7.69 µM (top of the series) unless noted
Procedure: NCGC Assay Overview: The IL-6/STAT signaling pathway was assayed in ME-180 cervical carcinoma cells by a beta-lactamase reporter gene controlled by a STAT Inducible Element (SIE). This reporter is induced by IL-6 at 40 pM AC50 and inhibited by the pan JAK inhibitor, 2-(1,1-Dimethylethyl)-9-fluoro-3,6-dihydro-7H-benz[h]-imidaz[4,5-f]isoquinolin-7-one, at approximately 10 nM AC50. Plated cells were incubated overnight and on the following day, stimulated with 40 pM IL-6 for 5 hrs. […]
Inconclusive results are not listed. Activity calls are given as the source filed them. Calls follow the shape of the dose curve; as a rule, active = well fitted curve in either direction with a large enough effect (not every such curve was filed as active); inconclusive = small, poorly fitted or top-dose-only effect, or another doubt; inactive = flat fitted curve, though single readings scatter.

COMPOUND	activity, negative = inhibition
N[C@@H](CSC1c2ccccc2-c2ccccc21)C(=O)O	3% (inactive)
Cc1ccc(O)cc1 (tested in a mixture with another compound)	-4.46% (inactive)
NC[C@@H](O)CSP(=O)(O)O	2.46% (inactive)
COc1cc2c(cc1OC)[C@]13CC[N@+]4(C)CC5=CCO[C@H]6CC(=O)N2[C@@H]1[C@@H]6[C@@H]5C[C@]34O	-5.46% (inactive)
C[C@H](CN(C)C)C(C#N)(c1ccccc1)c1ccccc1	4.38% (inactive)
C[C@]1(O)CC[C@H]2[C@@H]3[C@@H](O)CC4=CC(=O)CC[C@@]4(C)[C@H]3CC[C@]21C	-1.92% (inactive)
COc1ccc2c3c1O[C@@H]1C(=O)CC[C@@]4(O)[C@@H](C2)N(CC2CC2)CC[C@]314	4.82% [at 38 µM] (inactive)
C[C@@H]1O[C@H](OC2[C@@H](O)[C@H](O)C(O)[C@H](O)[C@H]2O)[C@@H](N)C[C@@H]1N=C(N)C(=O)O (stereo not given in full)	8.32% (inactive)
O=C(O)C(C(=O)O)P(=S)(S)c1ccccc1 (stereo not given)	2.85% (inactive)
NCCCN1CCN(c2ccccc2)CC1	5.73% (inactive)

* * *

TEST PROTOCOL: Cell Viability - N2a (AID 540);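 also: cells exposed to compound for 40 h at 37 °C; nearly all actives have a fitted effect of over 45% in size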
RUN CONDITIONS: N2a mouse neuroblastoma cell viability
Results filed as inconclusive are left out. Active and inactive are the calls of the source. Calls come from the whole dose curve; as a rule, active = well fitted cell-killing curve with a large enough effect; inconclusive = small, poorly fitted or top-dose-only effect; inactive = flat fitted curve, though single readings scatter.
Labels: yes (1) (active), no (0) (inactive)

COMPOUND	LABEL CLASS
N#CCc1ccccc1	no (0)
CCCCOC(=O)c1ccccc1N	no (0)
Oc1cccc(Cl)c1	no (0)
c1ccc(Nc2ccc(Nc3ccccc3)cc2)cc1	yes (1)
ClCCBr	no (0)
C=C(C)CCl	no (0)
CC(C)CC(C)N (stereo not drawn)	no (0)
Nc1cc(Cl)cc(C(=O)O)c1Cl	no (0)
CC(=O)[O-].CC(=O)[O-].CC(=O)[O-].[Cr+3]	no (0)
CSSC	no (0)
BrC(Br)Br	no (0)
[O-][Cl+]O	no (0)
CC(C)(C)c1ccccc1O	no (0)
O=C(Cl)c1ccccc1F	no (0)
O=Cc1ccc2c(c1)OCO2	no (0)
Clc1cccc(Cl)c1Cl	no (0)
C=CCOCC1CO1 (stereo not drawn)	no (0)
Nc1cccc2ccccc12	no (0)
Clc1cc(Cl)c(Cl)c(Cl)c1	no (0)
C=CC=O	no (0)
CCCCC(CC)COC(=O)c1ccc(C(=O)OCC(CC)CCCC)c(C(=O)OCC(CC)CCCC)c1 (stereo not drawn)	no (0)
Clc1ccc(C(Cl)(Cl)Cl)c(Cl)c1	no (0)
CCOS(C)(=O)=O	no (0)
C[N+](=O)[O-]	no (0)
Cl/C=C/Cl	no (0)
O=[N+]([O-])c1ccccc1-c1ccccc1	no (0)
O=NN1CCCCC1	no (0)
c1ccc(NNc2ccccc2)cc1	no (0)
COc1c(C(C)(C)C)cc([N+](=O)[O-])c(C)c1[N+](=O)[O-]	no (0)
ClC(Cl)c1ccccc1	no (0)
ClCc1ccccc1	no (0)
CC(=O)CCC(C)=O	no (0)
Cl/C=C/CCl	no (0)
Cc1cccc(C)c1N	no (0)
O=P(OCCCl)(OCCCl)OCCCl	no (0)
Nc1ccc(Oc2ccc(N)cc2)cc1	no (0)
CC(C)(C)OOC(=O)c1ccccc1	no (0)
CCN(CC)N=O	no (0)
ClCC(Br)CBr (stereo not drawn)	no (0)
Nc1cc(Cl)cc(Cl)c1	no (0)
C/C=C/CC#N	no (0)
CCCCNC(=O)n1c(NC(=O)OC)nc2ccccc21	no (0)
O=c1ccc(=O)[nH][nH]1	no (0)
O=[N+]([O-])c1cc(Cl)c(Cl)c(Cl)c1	no (0)
ClC(Cl)(Cl)C(Cl)(Cl)Cl	no (0)
CCOP(=S)(OCC)SCCSCC	no (0)
Oc1cc(Cl)ccc1Cl	no (0)
C=CC#N	no (0)
COc1ccccc1N	no (0)
CCC[N+](=O)[O-]	no (0)
N#CC(O)c1ccccc1 (stereo not drawn)	no (0)
Cc1cc(-c2cc(C)c(N)c(C)c2)cc(C)c1N	no (0)
CCCCC#N	no (0)
Nc1ccc(Cl)c(Cl)c1	no (0)
O=S(=O)(Cl)c1ccccc1	no (0)
CCN(N=O)C(N)=O	no (0)
Clc1ccc(C(Cl)(Cl)Cl)cc1Cl	no (0)
CCCCCOC(=O)c1ccccc1C(=O)OCCCCC	no (0)
Cc1cnc[nH]1	no (0)
CC(C)CON=O	no (0)
CCCN(CCC)c1c([N+](=O)[O-])cc(C(F)(F)F)cc1[N+](=O)[O-]	no (0)
C=C(Cl)CCl	no (0)
FC(Cl)(Cl)Cl	no (0)

* * *

Tested on: ATS189
TEST PROTOCOL: qHTS profiling for inhibitors of Plasmodium falciparum proliferation (AID 504749); also: nearly all actives have a fitted effect of over 60% in size
RUN CONDITIONS: P. falciparum in erythrocytes, SYBR Green DNA, 72 h; series mostly up to 28.7 µM
Inconclusive results are not listed. The source made the active and inactive calls. Calls come from the whole dose curve; as a rule, active = well fitted inhibition curve with a large enough effect; inconclusive = small, poorly fitted or top-dose-only effect; inactive = flat fitted curve, though single readings scatter.
Labels: YES (active), NO (inactive)

COMPOUND	LABEL CLASS
C=C[C@@H]1CN2CC[C@H]1C[C@H]2[C@H](O)c1ccnc2ccccc12	YES
C[C@@H]1O[C@@H](O[C@H]2C[C@@H](O)[C@@]3(CO)[C@H]4[C@H](O)C[C@]5(C)[C@@H](C6=CC(=O)OC6)CC[C@]5(O)[C@H]4CC[C@@]3(O)C2)[C@@H](O)[C@H](O)[C@H]1O	NO
C[C@@H](Cc1ccc(O)cc1)NC[C@@H](O)c1cc(O)cc(O)c1	NO
C[N+]1([O-])[C@H]2CC[C@H]1CC(OC(=O)[C@@H](CO)c1ccccc1)C2 (stereo not given in full)	NO
C[N+]1(C)C2CC[C@H]1CC(OC(=O)[C@@H](CO)c1ccccc1)C2 (stereo not given in full)	NO
